Molecular target: X-box-binding protein 1 (Rattus norvegicus, UniProt Q9R1S4)
Sequence (Q9R1S4 whole entry): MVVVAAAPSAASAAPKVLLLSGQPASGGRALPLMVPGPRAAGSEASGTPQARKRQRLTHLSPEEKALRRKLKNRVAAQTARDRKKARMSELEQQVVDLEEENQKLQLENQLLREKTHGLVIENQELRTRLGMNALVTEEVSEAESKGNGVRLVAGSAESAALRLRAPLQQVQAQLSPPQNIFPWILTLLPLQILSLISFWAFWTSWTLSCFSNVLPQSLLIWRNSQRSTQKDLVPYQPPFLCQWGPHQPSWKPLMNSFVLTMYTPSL
Experiment: ChEBML_1526682
From the text: Transactivation of XBP1 in rat IEC-6 cells after 48 hrs by dual luciferase reporter gene assay
In this section we review reported EC50 values for a set of compounds.
Entry rule: numbers only, all in nM.

# count of solved cases: 3
CC(C)[C@@]12CC[C@@](C)(O1)[C@H](O)CC/C(C=O)=C/CC[C@@]1(C)O[C@@H]1C2 1140
C/C1=C/C[C@@H](O)[C@@]2(C)CC[C@@](C(C)C)(C[C@@H](O)[C@]3(C)CC[C@H]1O3)O2 340
C/C1=C\[C@@H](O)C[C@@]2(C)O[C@@H]2C[C@]2(C(C)C)CC[C@@](C)(O2)[C@H](O)CC1=O 880

Query compound follows.
Dear colleague, I am looking for the recorded EC50 of the following compound: C/C1=C\CC[C@@]2(C)O[C@@H]2C[C@]2(C(C)C)CC[C@@](C)(O2)[C@H](O)CC1=O
420
